Data provenance: paper PMC5540273

- System: NEK1
- Cond: concentration: 1 μM, replicates: in singlicate; n = 1;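 also: KINOMEscan kinase panel screen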
The following compounds are listed with their measured %Inh values.
Give your result as the value with the unit written after it.

>>> result("Cc1nnc(-c2ccc3occ(-c4ccc(S(C)=O)cc4)c3c2)[nH]1 (centres unmarked)")
"0%"
>>> result("CS(=O)(=O)c1ccc(-c2c(-c3ncn[nH]3)sc(N3CCOCC3)c2C#N)cc1")
"4%"
>>> result("COc1cc2ncnc(Nc3ccc4nc(-c5ccccc5)[nH]c4c3)c2cc1OC.Cl [GW282450]")
"0%"
>>> result("Cc1csc(-c2nc(Nc3ccncc3)c3ccccc3n2)n1 [GW869640]")
"0%"
>>> result("COc1cccc(-c2cc(-c3c[nH]nc3-c3ccccn3)ccn2)c1 [GW680338]")
"0%"

Problem: Looking for the measured %Inh of Cc1cc(NCC(c2ccccc2)c2ccccc2)nc(NCc2ccc(C(F)(F)F)cc2)n1 [GW497681] , can you help?
Result: 0%

Problem: Entry O=C(Nc1n[nH]c2nc(-c3nccs3)c(Br)cc12)C1CCCC1 [SB-742609] has what %Inh?
Result: 0%

---

- Test system: MAP4K4
- Cond: concentration: 1 μM, replicates: in singlicate; n = 1
Readings of %Inh for the listed molecules
Response body: numeric value in %, unit text excluded.

Reference set, count: 3
>>> result("Cc1cccc(-c2nc(Nc3cccc(C(N)=O)c3)c3ccccc3n2)n1")
0
>>> result("COc1cccc(NC(=O)NC2CCN(c3ccnc(Nc4ccc(F)cc4)n3)C2)c1 (centres unmarked)")
83
>>> result("COc1ccccc1-c1ccc2c(NC(=O)C3CC3)n[nH]c2n1")
25

Problem: Need %Inh, item `Cl.c1ccc(-c2n[nH]cc2-c2ccnc(-c3ccc(CN4CCOCC4)cc3)c2)nc1`
Result: 0

Problem: Which %Inh reading was recorded for the molecule `Cn1cncc1-c1ccc2ncnc(Nc3ccc(OCc4ccccc4)cc3)c2c1` ?
Result: 25

---

- System: RPS6KA4(Kin.Dom.1-N-terminal)
- Cond: concentration: 1 μM, replicates: in singlicate; n = 1
Measured %Inh, listed per entry.
State the answer as a number, implicitly in %.

Answered examples (5):
>>> result("Clc1cc(Cl)cc(Nc2ccnc(Nc3cc(Cl)cc(Cl)c3)n2)c1")
0
>>> result("O=C(Nc1n[nH]c2nc(-c3nccs3)c(Br)cc12)C1CC1")
0
>>> result("O=C(Nc1ccc2c(c1)OCO2)NC1CCN(c2ccnc(Nc3ccc(F)cc3)n2)C1 (stereo not drawn)")
0
>>> result("CC(C)(C)c1ccc(C(=O)Nc2cn3cc(-c4cccnc4)ccc3n2)cc1")
15
>>> result("Cc1ccc(NC(=O)Nc2cc(C(C)(C)C)nn2-c2ccccc2)cc1")
9

Problem: Look up %Inh for this molecule: `COc1ccc(Nc2nccc(-c3cccc(NC(=O)c4cc5cc(F)ccc5[nH]4)c3)n2)cc1`
Result: 21

Problem: Recorded %Inh for `Cc1cccc(-c2nc(Nc3cccc(C(N)=O)c3)c3ccccc3n2)n1` , please?
Result: 27

Problem: # query: %Inh of entry `CC(=O)Nc1nc2cnc(Nc3cc(NC(=O)c4cccc(CCC#N)c4)ccc3C)nc2s1`
Result: 0

Problem: Could you share which %Inh value was measured for `CS(=O)(=O)c1ccc(-c2c(-c3ncn[nH]3)sc(N3CCOCC3)c2C#N)cc1` ?
Result: 4
